assay.system: T1, KGF (hKGF) (Homo sapiens, UniProt P21781 P21781:32-194)
T1 sequence: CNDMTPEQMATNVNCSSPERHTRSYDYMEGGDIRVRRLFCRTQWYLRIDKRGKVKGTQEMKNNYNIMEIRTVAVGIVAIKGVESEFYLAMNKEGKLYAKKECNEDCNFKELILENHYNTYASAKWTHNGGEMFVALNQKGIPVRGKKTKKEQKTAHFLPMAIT
experimental.details: filter; DPBS, 37 C; PC-3 Ki […] nM
condition.set: tags: Upstate Biotechnology; label: 32P
measurement.label: Kd

Which measured Kd value corresponds to 14N (ssRNA, 2'-NH2 pyrimidines) RNA: GGGAGGACGAUGCGGUCCAGGGAUUGAAGUGUCGGGGUAGGAACAUAAAGGCGGCCAGACGACUCGCCCGA ? 0.44 nM
